What collision cross section (N2) was measured for each of the following?
conditions: [M-H]-; instrument: TW; calibrated with phosphatidylcholines (ESI+) and phosphatidylethanolamines (ESI-), doubly charged cardiolipins calibrated with poly-DL-…
Give bare numbers, in Å².

{"compound": "CCCCCC/C=C\\CCCCCCCC(=O)OCC(COP(=O)(O)OCC(O)CO)OC(=O)CCCCCCCCCCCCCCC (centres undefined)", "collision cross section (N2) (Å²)": 262.68}
{"compound": "CCCCCCCCCCCCCCCC(=O)OCC(COP(=O)(O)OCCN)OC(=O)CCCCCCCCCCCCC (centres undefined)", "collision cross section (N2) (Å²)": 251.05}
{"compound": "CCCCCC/C=C\\CCCCCCCC(=O)OC[C@H](COP(=O)(O)OC[C@@H](O)COC(=O)CCCCCCCCCCCCCCC)OC(=O)CCCCCCCC1CC1CCCCCCCC (some centres undefined)", "collision cross section (N2) (Å²)": 326.79}

Below: the item to evaluate.
Prompt: Requested read-out: collision cross section (N2). Entry: CCCCCC/C=C\CCCCCCCC(=O)OCC(COP(=O)(O)OCC(O)CO)OC(=O)CCCCCCCC1CC1CCCCCCCC (centres undefined)
Response: 271.85

---

conditions: [M-H]-; instrument: DT; single field, calibrated with Agilent tune mix (Agilent)
What collision cross section (N2) was measured for each of the following?
Numbers only, in Å².

// input: 5 compounds below; output: collision cross section (N2) for each
1. NCCOP(=O)(O)O
2. COc1ccc2[nH]cc(CCN(C)C)c2c1
3. Cc1cn([C@H]2C[C@H](O)[C@@H](COP(=O)(O)OP(=O)(O)O)O2)c(=O)[nH]c1=O [Deoxythymidine 5'-diphosphate]
4. CCCCCCCCCCC(=O)O
5. O=C(O)/C=C/c1ccc(O)cc1 [4-Hydroxycinnamic acid]

Response:
1. 121.6
2. 153.76
3. 172.11
4. 148.87
5. 129.27

// input: 3 compounds below; output: collision cross section (N2) for each
1. Cc1ncc(CO)c(CO)c1O
2. C[N+](C)(C)CCOP(=O)([O-])OP(=O)(O)OC[C@H]1O[C@@H](n2ccc(N)nc2=O)[C@H](O)[C@@H]1O
3. C=CC1=C(C)/C(=C/c2[nH]c(Cc3[nH]c(/C=C4\NC(=O)C(C)=C4C=C)c(C)c3CCC(=O)O)c(CCC(=O)O)c2C)NC1=O

Response:
130.75
200.64
247.18

// input: 3 compounds below; output: collision cross section (N2) for each
1. O=C(O)c1cccc(O)c1O [2,3-Dihydroxybenzoic acid]
2. C[C@]12CC[C@H]3[C@@H](CCC4=CC(=O)CC[C@@]43C)[C@@H]1CC[C@@H]2O
3. CCCCCCCCCCCCCCCC(=O)SCCNC(=O)CCNC(=O)[C@H](O)C(C)(C)COP(=O)(O)OP(=O)(O)OC[C@H]1O[C@@H](n2cnc3c(N)ncnc32)[C@H](O)[C@@H]1OP(=O)(O)O

Response:
118.42
175.64
296.46

// input: 5 compounds below; output: collision cross section (N2) for each
1. CCCCCCCCCC(=O)SCCNC(=O)CCNC(=O)[C@H](O)C(C)(C)COP(=O)(O)OP(=O)(O)OC[C@H]1O[C@@H](n2cnc3c(N)ncnc32)[C@H](O)[C@@H]1OP(=O)(O)O
2. CCO[C@@H]1O[C@H](C(=O)O)[C@@H](O)[C@H](O)[C@H]1O [Ethyl glucuronide]
3. CC(=O)N[C@@H](Cc1ccccc1)C(=O)O
4. CCCCCCC(N)C(=O)O (racemic)
5. C[C@]12CC[C@@H]3c4ccc(O[C@@H]5O[C@H](C(=O)O)[C@@H](O)[C@H](O)[C@H]5O)cc4CC[C@H]3[C@@H]1CCC2=O [Estrone-3-glucuronide]

Response:
1: 276; 2: 143.97; 3: 144.2; 4: 141.62; 5: 215.74

---

conditions: [M+H]+; instrument: DT; stepped-field
quantity: collision cross section (N2) (Å²)
Give bare numbers, in Å².

// input: 4 molecules below; output: collision cross section (N2) for each
1. N=C(N)NCCC[C@H](NC(=O)[C@H](CCC(=O)O)NC(=O)CNC(=O)[C@@H](N)Cc1ccccc1)C(=O)O [FGER]
2. C[C@H](N)C(=O)N[C@@H](Cc1ccccc1)C(=O)N[C@@H](CC(=O)O)C(=O)N[C@@H](CCC(=O)O)C(=O)N[C@@H](CCCCN)C(=O)O [AFDEK]
3. OC[C@H]1O[C@H](O[C@H]2[C@H](O)[C@@H](O)[C@@H](O[C@H]3[C@H](O)[C@@H](O)[C@@H](O[C@H]4[C@H](O)[C@@H](O)C(O)O[C@@H]4CO)O[C@@H]3CO)O[C@@H]2CO)[C@H](O)[C@@H](O)[C@@H]1O (stereo not given in full) [Maltotetraose]
4. CCC(C)[C@H](NC(=O)[C@H](CO)NC(=O)[C@H](C)NC(=O)[C@@H](N)CS)C(=O)N[C@@H](CCC(N)=O)C(=O)N[C@@H](CCCCN)C(=O)O (stereo not given in full) [CASIQK]

Response:
[217.1, 238.3, 238.3, 252.8]

Prompt: Requested read-out: collision cross section (N2). Entry: CCC(C)[C@H](NC(=O)[C@H](CCC(N)=O)NC(=O)CN)C(=O)N[C@H](C(=O)NCC(=O)N[C@@H](CCCNC(=N)N)C(=O)O)C(C)C (stereo not given in full) [GQIVGR]
Response: 245.5

---

What collision cross section (N2) was measured for each of the following?
conditions: [M+H]+; instrument: DT; single field, calibrated with Agilent tune mix (Agilent)
Numbers only, in Å².

Answered cases to consult:
{"structure.as.smiles": "CCCCC/C=C\\C/C=C\\CCCCCCCCCCCC(=O)O[C@H](COC(=O)CCCCCCCCCCCC)COP(=O)(O)OCCN", "reported.value": 275}
{"structure.as.smiles": "CCCCC/C=C\\C/C=C\\CCCCCCCCCC(=O)O[C@H](COC(=O)CCCCCCCCCCCC)COP(=O)([O-])OCC[N+](C)(C)C", "reported.value": 279.8}
{"structure.as.smiles": "CCCCCCCCCCCCC=CC[C@@H](O)[C@H](CO)NC(=O)CCCCCCCCCCCCCCCCC", "reported.value": 261.6}
{"structure.as.smiles": "CCC/C=C\\C/C=C\\CCCCCCCCCC(=O)O[C@H](COC(=O)CCCCCCCCCCCCC)COP(=O)([O-])OCC[N+](C)(C)C", "reported.value": 276.8}
{"structure.as.smiles": "CCCCCCCCCC/C=C\\CCCCCCCCCC(=O)O[C@H](COC(=O)CCCCCCCCCCCCC)COP(=O)(O)OC[C@H](N)C(=O)O", "reported.value": 286.2}

Below: the item to evaluate.
Prompt: Requested read-out: collision cross section (N2). Entry: `CCCCCC/C=C\CCCCCCCCCCCC(=O)O[C@H](COC(=O)CCCCCCCCC/C=C\CCCCCC)COP(=O)([O-])OCC[N+](C)(C)C`
Response: 297

---

conditions: [M+H-H2O]+; instrument: DT; single field, calibrated with Agilent tune mix (Agilent)
quantity: collision cross section (N2) (Å²)
Numbers only, in Å².

{"compound": "CNC[C@H](O)c1ccc(O)c(O)c1 [Epinephrine]", "collision cross section (N2) / Å²": 138.3}
{"compound": "O=C(O)/C=C/c1ccc(O)cc1 [4-Hydroxycinnamic acid]", "collision cross section (N2) / Å²": 127}

// input: 4 compounds below; output: collision cross section (N2) for each
1. COc1cc(C(O)C(=O)O)ccc1O (racemic) [DL-Vanillylmandelic acid]
2. O=C(O)c1ccc(O)c(O)c1 [Protocatechuic acid]
3. O=C(O)c1cccnc1C(=O)O [Quinolinate]
4. CCCCCCCCCCCCCCCCCC(=O)OC[C@@H](O)CO [1-Stearoyl-sn-glycerol]

Response:
1. 133.3
2. 122.3
3. 130.5
4. 199.6

// input: 7 compounds below; output: collision cross section (N2) for each
1. CC(C)C[C@H](N)C(=O)N1CCC[C@H]1C(=O)O [L-leucyl-L-proline]
2. CC(C)=CCC[C@@H](C)[C@H]1CC[C@@]2(C)C3=C(CC[C@]12C)[C@@]1(C)CC[C@H](O)C(C)(C)[C@@H]1CC3 [Lanosterol]
3. CC1=C(/C=C/C(C)=C/C=C/C(C)=C/CO)C(C)(C)CCC1=O [4-Oxoretinol]
4. O=C(O)C(O)c1ccc(O)c(O)c1 (centres undefined) [3,4-Dihydroxymandelic acid]
5. C[C@H](CCC(=O)O)[C@H]1CC[C@H]2[C@@H]3CC[C@@H]4C[C@H](O)CC[C@]4(C)[C@H]3CC[C@]12C [Lithocholic acid]
6. C[C@]12CC[C@H](O)CC1=CC[C@@H]1[C@@H]2CC[C@]2(C)C(=O)CC[C@@H]12 [trans-Dehydroandrosterone]
7. NCCS(=O)(=O)O [Taurine]

Response:
1: 149.5; 2: 207.3; 3: 173.3; 4: 132; 5: 193.4; 6: 166; 7: 135.4
